Assay Target: T1, Bud14, P27637
T1 sequence (P27637 247-328, looked up): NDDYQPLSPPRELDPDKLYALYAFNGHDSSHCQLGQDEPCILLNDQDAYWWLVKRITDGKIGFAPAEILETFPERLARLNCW
Assay Comment: SPOT array
Conditions Used: median of control spots 956
Measured Parameter: SPOT intensity

Study these solved cases before continuing.
{"Binder": "RPPRPPPKPLHLRTE", "SPOT intensity": 0}
{"Binder": "NPTKSPPPPPSPSTM", "SPOT intensity": 2}

[P] RSVKRPRRAPRPVVS
[Q] RHLKLVPSTPMDIPW
Return label of the item with the larger SPOT intensity. Candidates: P , Q . # answer = label of selected item
P

[P] QPWTDQFEKLEKEVS
[Q] MTKTPETSPPKRPMG
Identify the item whose SPOT intensity is the smaller number: P or Q Choose, then provide that item's label.
Q
